# Test system: SNB-19 CNS
# Test: NCI tumour cell line growth inhibition, 48 h
Tag: label 1 if measured TGI is not below 30 µM, label 0 if it is.

NC(Cc1ccc(O)cn1)C(=O)NC(C(=O)O)c1ccccc1 (stereo unspecified); label 1
COc1ccccc1C1C2=C(COC2=O)Oc2cc3c(cc21)OCO3 (stereo unspecified); label 1
COc1ccccc1-n1cnc(N)c1C(=O)c1cc(OC)c(OC)c(OC)c1; label 1
COc1ccccc1N1CCN(CCCCNC(=O)c2ccc([N+](=O)[O-])o2)CC1; label 0
COc1cc(/C=C/C(=O)c2cccc3ccccc23)cc(OC)c1OC; label 0
O=C(Nc1ccccc1)c1cc2ccccc2c(N=Nc2cccc([N+](=O)[O-])c2)c1O; label 1
CCOC(=O)Cc1c(C)c2ccc(OC(C)=O)c(OC(C)=O)c2oc1=O; label 1
Cc1c2cnccc2c(C)c2c1c1cc(O)ccc1n2C(C)C; label 0
CC(=O)N1C(C(=O)NN2CCOCC2)CSC1c1ccccc1 (stereo unspecified); label 1
COc1ccccc1-n1cnc2c1NC(C)(C)N=C2C(N)=O; label 1

Proceed to the following item.
Q. # bool: TGI of `Cc1cc2c(cc1Cl)SC(N(c1ccccc1Cl)S(=O)(=O)c1ccc(Br)s1)=NS2(=O)=O` >= 30 µM
A. label 1

###

# System: HT29 colon
# Test: NCI tumour cell line growth inhibition, 48 h
Property: GI50

Q. Look up and state reported GI50 for `Cc1cc2c(cc1Cl)SC(N(c1ccccc1Cl)S(=O)(=O)c1ccc(Br)s1)=NS2(=O)=O`
A. 19900 nM

Q. Entry `COc1cc2c(Oc3ccc(NC(=O)C4(C(=O)Nc5ccc(F)cc5)CC4)cc3F)ccnc2cc1OCCCN1CCOCC1` needs its GI50 filled in; supply it.
A. 387 nM

Q. Query GI50 for C[C@@H](O)[C@@H](C)Oc1nc(Nc2ccc(S(=N)(=O)C3CC3)cc2)ncc1C(F)(F)F (stereo partly specified)
A. 33 nM

Q. Please give measured GI50 of the following entry: C[C@@H]1CC[C@H]2[C@@H](C)C(O)O[C@@H]3O[C@]4(C)CC[C@@H]1[C@]32OO4 (stereo partly specified)
A. 634 nM

Q. Please report the measured GI50 for Cc1nc2ccccn2c1NC(=O)NN1C(=O)CSC1c1ccc(Cl)cc1 (stereo unspecified)
A. > 100000 nM

Q. Please report the measured GI50 for O=CC(OC(=O)c1ccccc1)C(OC(=O)c1ccccc1)C(COC(c1ccccc1)(c1ccccc1)c1ccccc1)OC(=O)c1ccccc1 (stereo unspecified)
A. 11700 nM

###

# Tested on: NCI-H226 lung
# Test: NCI tumour cell line growth inhibition, 48 h; in the data active means GI50 below about 0.43 µM; inactive means the rest
Your response should consist of one outcome taken from true = active, false = inactive

Nc1nc(N)c2c(n1)NC(c1sc(Cl)nc1Cl)CC(c1ccccc1)=N2 (stereo not given); false
Cc1nc2ccccn2c1NC(=O)NN1C(=O)CSC1c1ccc(Cl)cc1 (stereo not given); false
COc1ccc2[nH]c(Cl)c(/C=C3/C(=O)Nc4ccccc43)c2c1; false
C[C@H]1CCC/C=C/C2CC(OC(=O)CN(C)C)CC2C(OC(=O)CN(C)C)/C=C/C(=O)O1 (stereo not given in full); true
OCC#CCOCC#Cc1ccccc1C#CCOCC#CCO; false

Q. GET /call?item= `N#C/C(=C\c1ccc(O)c(O)c1)C(=O)NCc1ccc(C(F)(F)F)cc1` returns the recorded outcome of this test.
A. false

Q. Tell me the assay call for `O=c1cc(-c2ccc(Cl)cc2)[nH]c2ccccc12` please.
A. false

Q. // outcome(item) with item = `C1=N[C@]23C(=N[C@H](N=C2NCc2ccco2)[C@]24N=CNC2=N[C@H]3N=C4NCc2ccco2)N1`
A. false

Q. Please indicate how the test categorized `CC(C)C[C@H](CC(=O)O)C(=O)N[C@@H](Cc1c[nH]c2ccccc12)C(=O)N[C@@H](C)c1ccccc1` .
A. false

Q. Entry `Cc1cccc2c(C3=C(c4cn(C)c5ccccc45)C(=O)NC3=O)cn(C)c12` : call = ?
A. false

###

# Tested on: IGROV1 ovarian
# Test: NCI tumour cell line growth inhibition, 48 h
Property: TGI

Below, 10 molecules whose answers are already recorded.
N#C/C(=C\c1ccc(O)c(O)c1)c1c(C#N)c(N)nn1-c1ccccc1; 14.5 µM
O/N=C1/CCCC/C1=C/C=C/c1ccccc1; 36.8 µM
Cc1cccc2c(N)c3cccc(C(=O)NCC[N+](C)(C)Cc4ccc([N+](=O)[O-])n4C)c3nc12; 58.4 µM
O=C(CCC(=O)Nc1ccccc1C(F)(F)F)N/N=C1\C(=N\NC(=O)CCC(=O)Nc2ccccc2C(F)(F)F)C(c2ccc3c(c2)OCO3)Oc2ccccc21 (configuration not stated); > 100 µM
CN1C(=O)c2ccccc2C(O)(c2ccccc2)C1(O)c1ccccc1 (configuration not stated); > 100 µM
N/C(=N\N=C\c1cc2ccccc2s1)c1cnccn1; > 100 µM
O=C1NC(=O)C(C(=O)C(=O)Nc2cc(Cl)ccc2Cl)C(=O)N1; > 100 µM
CCCCn1c(-c2ccccc2)cs/c1=N\N=C1C=C(C(C)(C)C)C(=O)C(C(C)(C)C)=C1; > 100 µM
C/C=C1\CC(C(=O)OCC)CCCCCCC1=O (configuration not stated); > 100 µM
COc1cc(/C=C/C(=O)c2cccc3ccccc23)cc(OC)c1OC; 43.4 µM

Q. Kindly indicate its recorded TGI. Item: CN1C(=O)N(C)C2(CCN(CC(CC3OCCO3)c3ccc(F)cc3)CC2)C1=O (configuration not stated)
A. > 100 µM

Q. Report TGI, nothing else, for this molecule: `Cc1cc(F)c(C(=O)Nc2cccc(-c3nncn3C(C)C)n2)cc1-n1cnc(C2CC2)c1`
A. 61.7 µM

Q. Return the recorded TGI value; entry: `Cc1ccc(S(=O)(=O)NC(=O)Nc2c(S(N)(=O)=O)cc(S(N)(=O)=O)c(Cl)c2Cl)cc1`
A. > 100 µM

Q. State its TGI for this molecule: CC(C)C[S+]1C2=C([O-])CC(C)(C)CC2=Nc2ccccc21 (configuration not stated)
A. > 100 µM

Q. Name the recorded TGI of the item `COC(CNC(=O)CNC(=O)c1ccc(C(F)(F)F)cc1)OC` in your answer.
A. > 100 µM

Q. Give TGI for `C/C(NNC(=O)c1ccccc1O)=C1\C=Nc2ccccc2S1`
A. > 100 µM

Q. Tell me its TGI given `Cc1cc(OCc2nc(N)nc(N)c2-c2ccc(Cl)c(Cl)c2)ccc1[N+](=O)[O-]` as the entry.
A. > 41.1 µM

###

# Tested on: CAKI-1 renal
# Test: NCI tumour cell line growth inhibition, 48 h
Property: TGI

Solved cases (4 shown):
O=C(O)C1C2C=CC(O2)C1C(=O)NCc1cccnc1 (centres undefined); > 100 µM
C=C1CCC2CC1C(C(=O)c1c[nH]c3ccccc13)=NC2(C)C (centres undefined); > 100 µM
CC(=O)O[C@@H]1[C@H](OC2CCCCC2(c2ccccc2)c2ccccc2)O[N+]([O-])=CC12CCCCC2 (some centres undefined); 27.5 µM
O=C(O)c1cc(N=Nc2ccc([N+](=O)[O-])cc2)ccc1O; > 100 µM

Q. Give recorded TGI. `CCCNC1=C2C[C@@H](C)C[C@@H](OC)[C@@H](OC(=O)CCCN)[C@H](C)/C=C(\C)[C@@H](OC(N)=O)[C@H](OC)/C=C\C=C(/C)C(=O)NC(=CC1=O)C2=O`
A. 38.5 µM

Q. Look up TGI of `Oc1ccc(NC(=S)Nc2ccccc2)cc1` and report it.
A. > 100 µM

Q. Indicate its recorded TGI; the molecule in question is CC(=O)C(N1CCCCC1)C(O)(C(F)(F)F)C(F)(F)F (centres undefined)
A. > 100 µM

Q. Give me measured TGI, please, for this molecule: `N#CCc1c(F)c(F)c(F)c(F)c1F`
A. > 100 µM

Q. Look up TGI of CC(C)N(C(=O)C12C3C4C1C1C2C3C41C(=O)C(C)(C)C)C(C)C (centres undefined) and report it.
A. > 100 µM

Q. Fill in reported TGI for this entry: Cc1cccc(C(C)(C)C)c1NC(=O)C(C#N)C1=C(Cl)C(=O)c2ccccc2C1=O (centres undefined)
A. 31.5 µM

Q. Tell us which TGI value is on record for `COc1ccc(-c2nc(-c3ccc(OC)cc3)n(-c3ccccc3)n2)cc1`
A. > 100 µM

Q. Supply measured TGI of OC1(c2ccccc2)CC2CCC(C1)N2CCCC(O)(c1ccccc1)c1ccccc1 (centres undefined) in your reply.
A. 27.1 µM

Q. Answer with the recorded TGI of `C/C(=C1/N=C(c2cc([N+](=O)[O-])ccc2Cl)N(c2ccc(Br)cc2)C1=O)c1ccc(N(CCC#N)CCC#N)cc1C` only.
A. > 100 µM

Q. Give the reported TGI for this molecule. `COc1cccc(/C=N/[N-]C(=O)c2ccncc2)c1[O-].[Mn+2].[OH3+]`
A. > 100 µM

Q. Could you please provide reported TGI for `COc1c(C)c(C/C=C(\C)CC/C=C(\C)CC/C=C(\C)CCC=C(C)C)c(OC)c(OC)c1OC` ? Thanks!
A. > 100 µM

Q. Look up TGI of `CCOC(=O)c1c(N2CCCC2)[nH]c(=O)c(C(c2c(O)c(C(=O)OCC)c(N3CCCC3)[nH]c2=O)C(C)C)c1O` and report it.
A. > 100 µM

Q. State its TGI for this molecule: Cc1ccc2nc(NC(=O)C(=O)C(C(=O)c3ccc4ccccc4c3)C3OC(=O)c4ccccc43)sc2c1 (centres undefined)
A. 52.3 µM

Q. Supply reported TGI belonging to this molecule: COc1ccccc1C1C2=C(COC2=O)Oc2cc3c(cc21)OCO3 (centres undefined)
A. > 100 µM

Q. Name the recorded TGI of the molecule listed here: `Cc1ccc2nc(N)[nH]c(=O)c2c1Sc1ccncc1`
A. > 100 µM

Q. // Input: `O=C(Nc1ccc(OS(=O)(=O)c2ccc(F)cc2)cc1)C12CC3CC(CC(C3)C1)C2` . Output its TGI only.
A. > 100 µM

Q. Indicate the recorded TGI value for this molecule: `CCOC(=O)Oc1cc2ccsc2c2c1c1ccccc1n2C(=O)OCC`
A. > 100 µM

Q. Provide only the value of recorded TGI for `O=[N+]([O-])c1ccc(CSc2nn(Cc3ccc([N+](=O)[O-])cc3)cc3ncnc2-3)cc1`
A. > 100 µM

Q. Specify TGI for CN1C(=O)c2ccccc2C(O)(c2ccccc2)C1(O)c1ccccc1 (centres undefined) and stop.
A. > 100 µM

Q. Determine from records and report TGI for `CN(C)c1ccc(/C=C/C(=O)c2ccc(Nc3nc(Nc4ccc(F)cc4)nc(Nc4ccc(F)cc4)n3)cc2)cc1`
A. 63.3 µM
